Target: human SLC15A4 dileucine mutant (L14A, L15A, L318A, V319A) (Homo sapiens, UniProt Q8N697, L14A/L15A/L318A/V319A)
Construct: expressed in transfected cells
Sequence (Q8N697 whole entry L14A/L15A/L318A/V319A): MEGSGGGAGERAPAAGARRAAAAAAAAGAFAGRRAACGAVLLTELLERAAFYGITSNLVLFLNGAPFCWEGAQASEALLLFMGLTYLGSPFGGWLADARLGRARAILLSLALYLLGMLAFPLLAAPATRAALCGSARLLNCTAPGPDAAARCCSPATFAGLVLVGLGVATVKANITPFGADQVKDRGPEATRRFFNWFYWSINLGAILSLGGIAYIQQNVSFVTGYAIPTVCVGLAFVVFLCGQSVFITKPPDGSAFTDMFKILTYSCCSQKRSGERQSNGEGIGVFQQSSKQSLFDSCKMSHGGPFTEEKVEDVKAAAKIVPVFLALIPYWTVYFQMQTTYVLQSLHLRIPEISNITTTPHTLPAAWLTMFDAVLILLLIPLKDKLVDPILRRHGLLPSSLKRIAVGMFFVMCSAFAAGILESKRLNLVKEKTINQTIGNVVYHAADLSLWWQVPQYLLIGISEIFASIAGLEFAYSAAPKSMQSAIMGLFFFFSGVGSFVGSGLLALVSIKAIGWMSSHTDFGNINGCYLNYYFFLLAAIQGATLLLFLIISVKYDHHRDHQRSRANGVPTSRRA
Assay: SLC15A4 transport NFκB luciferase reporter assay in A549 cells
Format: cell-based
Conditions: FIG. 9
Text: Development of SLC15A4-Transport Luciferase Reporter Assay. […] The precise substrate scope of endolysosomal SLC15A4 is not established. However, several studies have implicated SLC15A4 to be a transporter of the bacterial-derived peptidoglycans, such as MDP and Tri-DAP, which are ligands of the immune sensors NOD1 and NOD2^27-29, 48. […]
REPORTED_METRIC: block of MDP transport in a dose-dependent fashion

- COMPOUND: "CCn1c2ccccc2c2cc(CNc3nc4ccccc4n3C)ccc21 [AJ2-30]"
  VALUE_REPORTED: "active"
- COMPOUND: "Brc1ccc2[nH]cc(CNc3nc4ccccc4[nH]3)c2c1 [AJ2-3A]"
  VALUE_REPORTED: "active"
- COMPOUND: "CCCC(=O)N(Cc1ccc2[nH]ccc2c1)C1Cc2ccccc2NC1=O (stereo not shown) [AJ2-18]"
  VALUE_REPORTED: "inactive controls"
- COMPOUND: "CCCC(=O)N(Cc1ccc2[nH]ccc2c1)C1Cc2ccccc2C1 [AJ2-22]"
  VALUE_REPORTED: "inactive controls"
